experimental target: human RIP1 kinase domain (2-375) (Homo sapiens (Human), UniProt Q13546)
Sequence (Q13546 2-375): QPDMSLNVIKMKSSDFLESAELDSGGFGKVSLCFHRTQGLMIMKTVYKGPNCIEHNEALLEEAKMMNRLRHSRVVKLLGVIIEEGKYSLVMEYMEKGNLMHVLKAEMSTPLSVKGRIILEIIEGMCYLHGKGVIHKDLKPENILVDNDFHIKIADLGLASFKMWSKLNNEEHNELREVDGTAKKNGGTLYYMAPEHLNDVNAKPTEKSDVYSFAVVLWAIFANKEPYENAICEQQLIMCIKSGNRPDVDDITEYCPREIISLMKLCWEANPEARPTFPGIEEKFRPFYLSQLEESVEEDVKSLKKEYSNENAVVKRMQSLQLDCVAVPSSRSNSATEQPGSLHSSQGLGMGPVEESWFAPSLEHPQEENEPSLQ
assay name: biochemical
Format: biochemical
experimental context: tight-binding apparent inhibition constant; human RIP1 kinase domain (2-375) 50 nM, 50 uM ATP, 2 hours; read-out: Ki
Entries and their Ki values follow.

{"columns": ["molecule", "unit of measure", "Ki"],
 "data": [
  ["CN1C(=O)[C@@H](NC(=O)c2ncn(CC3CCCO3)n2)CCn2nc(C3CC3)cc21 (stereo partly shown)", "nM", 2400],
  ["Cc1cc2n(n1)CC[C@H](NC(=O)c1ncc3cnn(-c4ccccc4)c3n1)C(=O)N2C", "nM", 57],
  ["Cc1ncccc1Cn1cnc(C(=O)N[C@H]2CCn3nccc3N(C)C2=O)n1", "nM", 420],
  ["COc1ccccc1Cn1cnc(C(=O)N[C@H]2CCn3nc(C4CC4)cc3N(C)C2=O)n1", "nM", 48],
  ["CC[C@@H]1CCCc2nc(C(=O)N[C@H]3COc4ccccc4N(C)C3=O)nn21 (racemic)", "nM", 8.7],
  ["CN1C(=O)C(NC(=O)c2ncn(Cc3ccccc3)n2)CCn2nc(C(C)(F)F)cc21 (racemic)", "nM", 100],
  ["CN1C(=O)[C@@H](NC(=O)c2nc3n(n2)[C@@H](c2ccccc2)CC3)CCn2nccc21 (single isomer, unassigned) [Example 362]", "nM", 896]
]}

---

experimental target: human RIP1 kinase domain (2-375) (Homo sapiens (Human))
assay name: biochemical
Format: biochemical
experimental context: Table 1; apparent Ki (Morrison tight-binding fit); 50 nM RIP1 kinase domain, 50 uM ATP, 2 hours incubation; read-out: RIP1 Ki
recorded endpoint: log10 Ki (log10 of the value in nM)

{"columns": ["compound", "experimental target", "log10 Ki"],
 "data": [
  ["CN1C(=O)[C@@H](NC(=O)c2ncn3c2CC(C(F)(F)F)CC3)COc2ccccc21 (some centres unmarked) [Example 38]", "human RIP1 kinase domain (2-375) (Homo sapiens (Human))", 1.94],
  ["CC1(C)CCc2c(C(=O)N[C@H]3CCc4cc(Cl)ccc4NC3=O)n[nH]c2C1 [Example 53]", "human RIP1 kinase domain (2-375) (Homo sapiens (Human))", 3.65],
  ["CN1C(=O)C(NC(=O)c2nnc(Cc3ccccc3)[nH]2)CCn2nc(C(F)(F)F)cc21 (centres unmarked) [Example 30]", "human RIP1 kinase domain (2-375) (Homo sapiens (Human))", 2.32],
  ["CN1C(=O)C(NC(=O)c2nnc(Cc3ccccc3)[nH]2)CCn2nc(C3CC3)cc21 (centres unmarked) [Example 29]", "human RIP1 kinase domain (2-375) (Homo sapiens (Human))", 2.07],
  ["CN1C(=O)[C@@H](NC(=O)c2n[nH]c3c2CC(C(F)(F)F)CC3)COc2ccccc21 (some centres unmarked) [Example 34]", "human RIP1 kinase domain (2-375) (Homo sapiens (Human))", 0.89],
  ["CN1C(=O)[C@@H](NC(=O)c2nnc(Cc3ccccc3)[nH]2)CCn2nc(C(F)(F)F)cc21 [Example 80]", "human RIP1 kinase domain (2-375) (Homo sapiens (Human))", 1.81]
]}

---

Entries and their pKi values follow.
experimental target: human RIP1 kinase domain (2-375) (Homo sapiens (Human))
assay name: biochemical
Type: biochemical
experimental context: tight-binding apparent inhibition constant; human RIP1 kinase domain (2-375) 50 nM, 50 uM ATP, 2 hours; read-out: Ki
pKi: −log10 of the molar value.

{"columns": ["molecule", "pKi"],
 "data": [
  ["CN1C(=O)[C@H](NC(=O)c2ncn(Cc3ccc(Cl)cc3)n2)CCn2nc(C3CC3)cc21 (single isomer, unassigned)", 5.09],
  ["CN1C(=O)[C@@H](NC(=O)c2ncc3c(n2)C2(CCCC2)OC3)CCn2nccc21", 7.15],
  ["CC(C)n1ncc2cnc(C(=O)N[C@H]3CCc4cc(F)cc(F)c4NC3=O)nc21", 7.55],
  ["Cc1cc(F)c2c(c1)OC[C@H](NC(=O)c1ncc3cnn(C(C)C)c3n1)C(=O)N2", 8.32],
  ["CCC[C@H]1CCCc2nc(C(=O)N[C@H]3CCc4cc(F)cc(F)c4NC3=O)nn21 (single isomer, unassigned)", 7.60],
  ["Cc1nn2c(c1C)N(C)C(=O)[C@@H](NC(=O)c1nnc(Cc3cccc(F)c3F)[nH]1)CC2", 7.40],
  ["CCC(C)(O)c1ccnc(C(=O)N[C@H]2COc3ccccc3N(C)C2=O)n1 (stereo partly shown)", 5.43]
]}

---

Entries and their Ki values follow.
experimental target: human RIP1 kinase domain (2-375) (Homo sapiens (Human), UniProt Q13546)
assay name: biochemical
Type: biochemical
experimental context: human RIP1 kinase domain (2-375), 50 uM ATP, 2 hours incubation, Transcreener ADP assay; read-out: RIP1 Ki

{"columns": ["compound", "Ki (nM)"],
 "data": [
  ["CCC1(C)Cc2c(C(=O)N[C@H]3COc4ccccc4N(C)C3=O)n[nH]c2CO1 (stereo partly shown) [Example 194]", 167],
  ["CN1C(=O)[C@@H](NC(=O)c2ncn(Cc3ccc(F)cc3)n2)CCn2nc(C3CC3)cc21 [Example 225]", 21],
  ["CCn1ncc2cnc(C(=O)N[C@H]3COc4ccccc4N(C)C3=O)cc21 [Example 202]", 57.6],
  ["CN1C(=O)C(NC(=O)c2nnc(Cc3ccccc3)[nH]2)CCn2c1nc1ccccc12 (stereo not shown) [Example 109]", 124],
  ["CN1C(=O)C(NC(=O)c2cn(Cc3ccc(F)c(F)c3)cn2)CCn2ccnc21 (stereo not shown) [Example 178]", 477],
  ["CN1C(=O)C(NC(=O)c2cc3c(cn2)cnn3[C@H]2CCOC2)COc2ccccc21 (stereo partly shown) [Example 156]", 68.3],
  ["CCOC(=O)[C@H]1[C@H]2CC[C@H](NC(=O)c3ncn(Cc4ccccc4)n3)C(=O)N(C)[C@H]21 (single isomer, unassigned) [Example 132]", 5000],
  ["CN1C(=O)[C@@H](NC(=O)c2nc3n(n2)[C@@H](c2ccccc2)CC3)CCn2nccc21 (single isomer, unassigned) [Example 125]", 891],
  ["CN1C(=O)[C@@H](NC(=O)c2ncn(Cc3ccccc3)n2)CCn2nc(C(F)(F)F)cc21 [Example 91]", 27.1],
  ["CN1C(=O)[C@@H](NC(=O)c2ncn3ccc(C(F)(F)F)nc23)COc2ccccc21 [Example 193]", 57.5],
  ["CN1C(=O)[C@@H](NC(=O)c2ncc3c(n2)C(C)(C)SC3)COc2ccccc21 [Example 218]", 25.4],
  ["CCC1Cc2c(C(=O)N[C@H]3COc4ccccc4N(C)C3=O)n[nH]c2CO1 (stereo partly shown) [Example 186]", 135],
  ["CN1C(=O)[C@@H](NC(=O)c2ccn(Cc3ccc(F)c(F)c3)n2)COc2c1cnn2C [Example 182]", 2300],
  ["CN1C(=O)[C@@H](NC(=O)c2n[nH]c3c2CC2(CCC2)OC3)COc2ccccc21 [Example 211]", 156],
  ["O=C(N[C@H]1COc2cc(F)cc(F)c2NC1=O)c1n[nH]c2c1C[C@H](C(F)(F)F)CC2 (single isomer, unassigned) [Example 87]", 104],
  ["CN1C(=O)[C@@H](NC(=O)c2n[nH]c3ncc(C(F)(F)C(F)(F)F)cc23)COc2ccccc21 [Example 117]", 5.6]
]}

---

Entries and their Ki values follow.
experimental target: human RIP1 kinase domain (2-375) (Homo sapiens (Human))
assay name: biochemical
Assay type: biochemical
experimental context: Table 5; apparent Ki (Morrison tight-binding fit); 50 nM RIP1 kinase domain, 50 uM ATP, 2 hours incubation; read-out: Ki
recorded endpoint: Ki (nM)

{"columns": ["compound", "recorded endpoint", "unit of measure", "numeric value"],
 "data": [
  ["CC(C)[C@@H]1CCCc2nc(C(=O)N[C@H]3COc4cc(F)cc(F)c4NC3=O)nn21 (single isomer, unassigned) [Example 715]", "Ki", "nM", 5],
  ["CC(C)Cn1cc(-c2cc3n(n2)CCC(NC(=O)c2ncn(Cc4ccccc4)n2)C(=O)N3C)cn1 (racemic) [Example 699]", "Ki", "nM", 53],
  ["CCOCCc1cc2n(n1)CC[C@H](NC(=O)c1ncn(Cc3ccccc3)n1)C(=O)N2C [Example 758]", "Ki", "nM", 86],
  ["Cc1cc2n(n1)CC[C@H](NC(=O)c1ccn(Cc3ccccc3)n1)C(=O)N2C [Example 741]", "Ki", "nM", 140],
  ["CN1C(=O)[C@@H](NC(=O)c2ncn(Cc3ccccc3)n2)CCn2nc(CO)cc21 (single isomer, unassigned) [Example 732]", "Ki", "nM", 61],
  ["CN1C(=O)[C@@H](NC(=O)c2nc3n(n2)CCNC3C(F)(F)F)COc2ccccc21 (some centres unmarked) [Example 787]", "Ki", "nM", 309],
  ["CN1C(=O)[C@@H](NC(=O)c2cc3c(-c4ccccc4F)cccn3n2)COc2ccccc21 [Example 708]", "Ki", "nM", 4],
  ["CN1C(=O)[C@@H](NC(=O)c2nc3n(n2)CCNC3c2ccccc2)COc2ccccc21 (some centres unmarked) [Example 723]", "Ki", "nM", 206],
  ["COC1CN(CCc2cc3n(n2)CC[C@H](NC(=O)c2ncn(Cc4ccccc4)n2)C(=O)N3C)C1 [Example 757]", "Ki", "nM", 168],
  ["CN1C(=O)[C@@H](NC(=O)c2ncn(Cc3ccccc3)n2)CCn2nc(CN3CC(F)C3)cc21 (single isomer, unassigned) [Example 726]", "Ki", "nM", 142],
  ["CN1C(=O)[C@@H](NC(=O)c2ncn(Cc3ccccc3)n2)CCn2nc(CNCC(F)(F)F)cc21 (single isomer, unassigned) [Example 733]", "Ki", "nM", 68],
  ["CN1C(=O)[C@@H](NC(=O)c2ncn(Cc3ccccc3F)n2)CCn2nc(CCN3CC4CC3CO4)cc21 (some centres unmarked) [Example 762]", "Ki", "nM", 182],
  ["COC1CN(Cc2cc3n(n2)CC[C@H](NC(=O)c2ncn(Cc4ccccc4)n2)C(=O)N3C)C1 [Example 781]", "Ki", "nM", 172],
  ["CN1C(=O)[C@@H](NC(=O)c2ncn(Cc3ccccc3)n2)CCn2nc(CCN3CCC3)cc21 [Example 756]", "Ki", "nM", 623],
  ["CN1C(=O)[C@@H](NC(=O)c2ncn(Cc3ccccc3)n2)CCn2nc(CNCC(F)(F)F)cc21 (single isomer, unassigned) [Example 789]", "Ki", "nM", 68],
  ["CN1C(=O)[C@@H](NC(=O)c2ncn(Cc3ccccc3)n2)CCn2nc(CCN3CC4CC3CO4)cc21 (some centres unmarked) [Example 761]", "Ki", "nM", 159],
  ["CN1C(=O)[C@@H](NC(=O)c2cc3c(cn2)CO[C@@]3(C)C(F)(F)F)COc2ccccc21 [Example 744]", "Ki", "nM", 10],
  ["CN1C(=O)[C@@H](NC(=O)c2cn3c(C(F)(F)F)cccc3n2)COc2ccccc21 (single isomer, unassigned) [Example 792]", "Ki", "nM", 70],
  ["C[C@@]1(C(F)(F)F)OCc2cnc(C(=O)N[C@H]3CCc4cc(F)cc(F)c4NC3=O)cc21 [Example 748]", "Ki", "nM", 14],
  ["CN1C(=O)[C@@H](NC(=O)c2nc3n(n2)CCN[C@@H]3c2ccccc2)COc2ccccc21 (single isomer, unassigned) [Example 785]", "Ki", "nM", 74],
  ["CN1C(=O)[C@@H](NC(=O)c2ncc3c(n2)[C@@](C)(C(F)(F)F)OC3)COc2ccccc21 [Example 743]", "Ki", "nM", 17],
  ["Cc1cc2n(n1)CC[C@H](NC(=O)c1cc3c(-c4ccccc4)cccc3cn1)C(=O)N2C (racemic) [Example 702]", "Ki", "nM", 33],
  ["COCCc1cc2n(n1)CC[C@H](NC(=O)c1ncn(Cc3ccccc3)n1)C(=O)N2C [Example 767]", "Ki", "nM", 64],
  ["CN1C(=O)[C@@H](NC(=O)c2cc3c(-c4ccccc4)cccn3n2)COc2ccccc21 [Example 713]", "Ki", "nM", 5],
  ["CN1C(=O)[C@@H](NC(=O)c2nc3n(n2)CCN(C)C3c2ccccc2)COc2ccccc21 (some centres unmarked) [Example 786]", "Ki", "nM", 112],
  ["CN1C(=O)[C@@H](NC(=O)c2nc3n(n2)CCN[C@@H]3c2ccccc2)COc2ccccc21 (single isomer, unassigned) [Example 729]", "Ki", "nM", 74]
]}
